Just for reference, ChEMBL document CHEMBL5715936 is where these values come from.

- target_of_assay: Inhibitor of nuclear factor kappa-B kinase subunit beta (Homo sapiens, UniProt O14920)
- Sequence (O14920 whole entry): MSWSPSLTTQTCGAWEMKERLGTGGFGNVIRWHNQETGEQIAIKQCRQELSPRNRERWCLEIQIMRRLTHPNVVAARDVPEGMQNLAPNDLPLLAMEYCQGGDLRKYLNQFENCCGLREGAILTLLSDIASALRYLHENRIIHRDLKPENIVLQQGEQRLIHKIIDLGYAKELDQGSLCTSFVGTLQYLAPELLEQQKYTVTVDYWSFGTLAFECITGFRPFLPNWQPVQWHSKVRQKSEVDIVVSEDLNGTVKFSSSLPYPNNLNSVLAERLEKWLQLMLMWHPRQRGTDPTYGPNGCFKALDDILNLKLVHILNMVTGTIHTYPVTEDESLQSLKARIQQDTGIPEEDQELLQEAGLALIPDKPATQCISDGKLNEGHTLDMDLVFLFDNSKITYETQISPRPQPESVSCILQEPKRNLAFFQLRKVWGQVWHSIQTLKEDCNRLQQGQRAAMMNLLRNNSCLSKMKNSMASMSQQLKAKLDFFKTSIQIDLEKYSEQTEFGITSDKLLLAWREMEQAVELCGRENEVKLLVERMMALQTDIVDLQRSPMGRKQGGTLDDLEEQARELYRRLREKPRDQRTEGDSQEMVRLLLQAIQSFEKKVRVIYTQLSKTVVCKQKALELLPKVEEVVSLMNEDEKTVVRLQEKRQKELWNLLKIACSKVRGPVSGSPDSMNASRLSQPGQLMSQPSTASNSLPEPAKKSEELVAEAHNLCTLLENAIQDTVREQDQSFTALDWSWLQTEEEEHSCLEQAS
- test_name: Inhibition of IKKbeta (unknown origin) using GST-SLP-76 as peptide substrate incubated for 10 mins in presence of [gamma-33P]ATP by scintillation counter assay
experimental_endpoint: IC50

INSERT INTO results (compound, experimental_endpoint, value_observed) VALUES
  ('COc1cc(C)c(Sc2cnc(NC(=O)c3ccc(CNC(C)C(C)(C)C)cc3)s2)cc1C(=O)N1CCN(C(C)=O)CC1 (configuration not stated)', 'IC50', '> 50 µM');

Next compound, please.
The compound listed as CC(=O)N1CCN(C(=O)c2cc(CSc3cnc(NC(=O)c4ccc(CNC(C)C(C)(C)C)cc4)s3)cc(C)c2C)CC1 (configuration not stated) has a reported IC50 of > 50 µM

###

- target_of_assay: Cytoplasmic tyrosine-protein kinase BMX (Homo sapiens)
- Sequence (P51813 whole entry): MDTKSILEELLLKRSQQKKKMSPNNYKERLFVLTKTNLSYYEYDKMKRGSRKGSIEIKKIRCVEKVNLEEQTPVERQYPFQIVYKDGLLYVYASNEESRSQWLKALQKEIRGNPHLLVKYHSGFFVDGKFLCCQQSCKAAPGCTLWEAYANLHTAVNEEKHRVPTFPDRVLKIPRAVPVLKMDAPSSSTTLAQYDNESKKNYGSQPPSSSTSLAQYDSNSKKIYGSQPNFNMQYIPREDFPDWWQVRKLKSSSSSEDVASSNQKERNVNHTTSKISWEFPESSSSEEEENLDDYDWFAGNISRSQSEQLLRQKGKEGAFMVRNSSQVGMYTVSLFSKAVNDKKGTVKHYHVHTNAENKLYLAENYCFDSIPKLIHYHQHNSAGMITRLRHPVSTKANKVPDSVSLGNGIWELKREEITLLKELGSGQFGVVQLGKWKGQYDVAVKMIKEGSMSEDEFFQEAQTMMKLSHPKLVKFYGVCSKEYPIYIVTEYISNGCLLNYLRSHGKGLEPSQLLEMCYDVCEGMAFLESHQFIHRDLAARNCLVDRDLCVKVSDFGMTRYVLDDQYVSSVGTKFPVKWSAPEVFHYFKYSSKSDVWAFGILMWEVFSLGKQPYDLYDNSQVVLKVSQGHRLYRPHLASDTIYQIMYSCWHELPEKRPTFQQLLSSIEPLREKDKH
experimental_endpoint: pIC50
Recall that pIC50 is obtained by taking minus log10 of the concentration measured in molar.

Hey, Cytoplasmic tyrosine-protein kinase BMX (Homo sapiens) data for "CC(=O)N1CCN(C(=O)c2cccc(CSc3cnc(NC(=O)c4ccc(N(C)C)cc4)s3)c2)CC1" : pIC50 came out at 4.70

###

- target_of_assay: Tyrosine-protein kinase ZAP-70 (Homo sapiens)
- Sequence (P43403 whole entry): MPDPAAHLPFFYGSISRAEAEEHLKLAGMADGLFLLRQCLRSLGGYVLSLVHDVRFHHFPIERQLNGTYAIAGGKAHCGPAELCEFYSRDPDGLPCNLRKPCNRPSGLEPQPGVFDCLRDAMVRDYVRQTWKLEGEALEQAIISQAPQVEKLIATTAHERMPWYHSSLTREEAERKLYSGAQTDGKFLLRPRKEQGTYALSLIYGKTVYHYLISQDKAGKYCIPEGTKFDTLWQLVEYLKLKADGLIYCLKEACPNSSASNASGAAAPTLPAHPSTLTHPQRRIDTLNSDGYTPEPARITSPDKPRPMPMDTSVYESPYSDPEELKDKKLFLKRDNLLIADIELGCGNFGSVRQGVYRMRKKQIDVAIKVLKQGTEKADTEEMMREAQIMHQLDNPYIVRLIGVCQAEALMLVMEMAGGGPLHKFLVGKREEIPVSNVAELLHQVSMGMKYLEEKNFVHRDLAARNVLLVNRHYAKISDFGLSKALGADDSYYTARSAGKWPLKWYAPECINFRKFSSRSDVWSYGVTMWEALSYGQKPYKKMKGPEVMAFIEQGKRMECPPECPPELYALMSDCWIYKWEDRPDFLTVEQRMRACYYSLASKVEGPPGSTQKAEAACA
- test_name: Inhibition of ZAP-70 (unknown origin) using GST-SLP-76 as peptide substrate incubated for 10 mins in presence of [gamma-33P]ATP by scintillation counter assay
experimental_endpoint: IC50

Hey, Tyrosine-protein kinase ZAP-70 (Homo sapiens) data for CC(=O)N1CCN(C(=O)c2cc(CSc3cnc(NC(=O)c4ccc(CNC(C)C(C)(C)C)cc4)s3)cc(C)c2C)CC1 (stereo unspecified) : IC50 came out at > 50 µM

###

- target_of_assay: Mitogen-activated protein kinase 3 (Homo sapiens)
- Sequence (P27361 whole entry): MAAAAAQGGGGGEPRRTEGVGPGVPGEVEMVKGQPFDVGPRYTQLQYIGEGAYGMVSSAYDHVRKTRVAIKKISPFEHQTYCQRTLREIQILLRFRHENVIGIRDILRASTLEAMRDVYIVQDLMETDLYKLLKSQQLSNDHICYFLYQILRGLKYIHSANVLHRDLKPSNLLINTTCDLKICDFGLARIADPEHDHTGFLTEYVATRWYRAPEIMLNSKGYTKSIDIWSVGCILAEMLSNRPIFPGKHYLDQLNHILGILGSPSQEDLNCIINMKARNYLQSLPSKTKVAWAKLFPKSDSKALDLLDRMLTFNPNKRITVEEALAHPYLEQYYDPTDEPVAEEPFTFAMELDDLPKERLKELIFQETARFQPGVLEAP
- test_name: Inhibition of ERK-1 (unknown origin) using GST-SLP-76 as peptide substrate incubated for 10 mins in presence of [gamma-33P]ATP by scintillation counter assay
pIC50: −log10 of the molar value.
Listed here: items and their measured pIC50.

Example entries begin here.
INSERT INTO measurements (compound, value_observed) VALUES
  ('COc1cc(C)c(Sc2cnc(NC(=O)c3ccc(CNC(C)C(C)(C)C)cc3)s2)cc1C(=O)N1CCN(C(C)=O)CC1 (stereo not drawn)', '< 4.30'),
  ('CC(=O)N1CCN(C(=O)c2cccc(CSc3cnc(NC(=O)c4ccc(N(C)C)cc4)s3)c2)CC1', '< 4.30');

The compound listed as CC(=O)N1CCN(C(=O)c2cc(CSc3cnc(NC(=O)c4ccc(CNC(C)C(C)(C)C)cc4)s3)cc(C)c2C)CC1 (stereo not drawn) has a reported pIC50 of < 4.30
